Documented inhibition across a set of compounds
Species on record: Cavia porcellus
assay_protocol: Negative ionotropic activity in potassium depolarized guinea pig longitudinal smooth muscle assessed as inhibition of calcium-induced contraction at 10^-5 M
Format: functional
Kindly provide the numeric value in % only, without the unit symbol.

- input_smiles: "C=CCOC(=O)C1=C(C)NC(C)=C(C(=O)OCC=C)C1/C=C/c1ccccc1OC"
  recorded_metric: "inhibition"
  unit_tag: "%"
  observed_result: 68
- input_smiles: "COC(=O)C1=C(C)NC(C)=C(C(=O)OC)C1c1c(-c2cc(OC)ccc2OC)nc2sc(C)cn12"
  recorded_metric: "inhibition"
  unit_tag: "%"
  observed_result: 74
- input_smiles: "C=CCOC(=O)C1=C(C)NC(C)=C(C(=O)OCC=C)C1c1ccc(C(C)(C)C)cc1"
  recorded_metric: "inhibition"
  unit_tag: "%"
  observed_result: 52

What does the record list as inhibition for CCc1cn2c(C3C(C(=O)OC)=C(C)NC(C)=C3C(=O)OC)c(-c3cc(OC)ccc3OC)nc2s1 ? 92

Returns the measured inhibition for the input compound. Input: COC(=O)C1=C(C)NC(C)=C(C(=O)OC)C1c1c(C)nc2sc(C)cn12 70

For the compound shown here, CCOC(=O)C1=C(C)NC(C)=C(C(=O)OCC)C1c1cccc(Oc2ccccc2)c1 , give the reported inhibition. 83
